system: OVCAR-4; assay: NCI tumour cell line growth inhibition, 48 h
Active and inactive are the calls of the source. No stated cut-off is given here; in the data, active = GI50 up to about 1.1 µM and inactive = higher.
Your response should consist of one outcome taken from 1.0 = active, 0.0 = inactive

O=C1CC(C(O)(C(F)(F)F)C(F)(F)Cl)CCC1C(O)(C(F)(F)F)C(F)(F)Cl (configuration not stated)    0.0
Cc1cc(C)nc(NC(=S)Nc2cccc(Cl)c2)c1    0.0
CC(=O)OC[C@@]1(C)[C@@H]2[C@@H]3[C@@]4(CO[C@]3(C)C(=O)[C@@]3(OC(C)=O)C[C@H](C)[C@H](OC(C)=O)[C@@H]3[C@H]4OC(C)=O)[C@H](OC(=O)c3ccccc3)C[C@@H]21    0.0
N#Cc1c(N2CCC(O)C2)c2ccccc2n2c1nc1ccccc12 (configuration not stated)    0.0
[O-][S+]1Cc2ccccc2CSS1 (configuration not stated)    0.0

IN: State the result this test recorded for "COC1=C(C)C(=O)C2=C(C1=O)[C@@H]1[C@@H]3Cc4c(OC(=O)CO)c(C)c(OC)c(O)c4[C@H](CNC(=O)C(C)=O)N3[C@@H](C#N)[C@H](C2)N1C" .
OUT: 1.0

IN: State the result this test recorded for "Cc1cc(=O)n2nc(CSc3nnc(Sc4cc(O)ccc4O)s3)sc2n1" .
OUT: 0.0

IN: What did this assay record as the result for CCOC(=O)CCC(NC(=O)N1CCN(c2c(C)nc(C)nc2O)CC1)C(=O)OCC (configuration not stated) ?
OUT: 0.0

IN: Returns: the outcome recorded for "COc1cc2c(cc1OCc1ccccc1)NC(=O)[C@@H]1C[C@@H](O)CN1C2=O" in this assay.
OUT: 0.0

IN: Which outcome was assigned to "O=C(NN=C1NCCCN1)c1ccco1" in this test?
OUT: 0.0

---

test system: SNB-19; assay: NCI tumour cell line growth inhibition, 48 h
Calls of active or inactive are those of the source. Rule as the data show it: active = GI50 up to about 1.1 µM and inactive = higher.
Valid outcomes are listed here; reply with one: active, inactive

Solved entries (count: 5):
Cc1cc(O)nc(NN2C(Cl)C(=O)C2c2ccco2)n1 (stereo unspecified)    inactive
CC[N+]1(C)CCC(O)(c2ccccc2)C(C(=O)c2ccccc2)C1 (stereo unspecified)    inactive
O=c1cc2n(c(=O)[nH]1)C1OC(C(O)C1O)[C@H]2CCO (stereo partly specified)    inactive
C1=N\CCNCC/N=C/c2ccccc2OCc2cccc(n2)COc2ccccc2/1    inactive
COc1cc(/C=C(\NC(=O)c2ccccc2)c2nc3c(O)nc(S)nc3[nH]2)cc(OC)c1OC    inactive

IN: What outcome does the record of this test show for "O=c1c(C(c2ccc3ccccc3c2)c2c(O)oc3ccccc3c2=O)c(O)oc2ccccc12" ?
OUT: inactive

IN: Test call for this molecule, please: Cc1cc(NCC2CC/C(=C\C=C\c3ccccc3)C2=O)no1 (stereo unspecified)
OUT: inactive

IN: Query: recorded result category for "O=C1c2ccccc2C(=O)N1C/C=N/NS(=O)(=O)c1ccc2ccccc2c1" in this test
OUT: inactive

IN: # lookup: test call for "CCS/C(=N\c1ccccc1)SC"
OUT: inactive

IN: Could you please tell me the result logged for CC(=O)C1=CN=C2C(=O)N(c3ccccc3)N(C)C12C (stereo unspecified) in this assay?
OUT: inactive

IN: Field: outcome | Entry: "C#CCn1c(=O)c2cc(OC)c(OC)cc2n(CC#C)c1=O"
OUT: inactive

IN: Please state the recorded outcome for this molecule: "Cc1cccc(NC(N)=S)c1"
OUT: inactive

IN: Test call, this molecule: "O=C(c1ccccc1)[C@H]1Nc2ccc(Cl)cc2[C@H]2c3ccccc3O[C@H]21"
OUT: inactive

IN: Entry COc1ccc2cc1Oc1ccc(cc1)CC1c3cc4c(cc3CCN1C)Oc1c(OC)cc3c(c1O4)C(C2)N(C)CC3 (stereo unspecified) : call = ?
OUT: inactive

IN: Assay result, entry N#C[BH2-][n+]1cn(C2CC(OP(=O)(O)OCC3OC(n4cnc5c(N)ncnc54)CC3O)C(CO)O2)c2nc(N)[nH]c(=O)c21 (stereo unspecified) — outcome?
OUT: inactive

IN: Please state the recorded outcome for this molecule: Cn1c(=O)n(CC(Br)CBr)c(=O)n(CC(Br)CBr)c1=O (stereo unspecified)
OUT: inactive

IN: Record request — test call for CC1CC2C3CCC4=CC(=O)C=CC4(C)C3(F)C(O)CC2(C)C1(O)C(=O)COP(=O)(O)O (stereo unspecified)
OUT: inactive

IN: Just curious, what result did "COc1ccccc1OCC(=N/NC(=O)c1ccncc1)/N=C/c1ccncc1" get here?
OUT: inactive

IN: Tell me the recorded outcome of this test for "COc1ccc(-c2nc(N)c(C#N)c3c2CCSc2ccc(C)cc2-3)cc1OC" .
OUT: inactive

IN: Please share the test call associated with "C/C(=N\Nc1nc2ccccc2o1)c1ccncn1" .
OUT: active

IN: Test call for this molecule, please: "O=c1/c(=C/c2ccc(Cl)cc2Cl)sc2nc3ccccc3n12"
OUT: inactive

---

tested on: KM12; experiment: NCI tumour cell line growth inhibition, 48 h
The source made the active and inactive calls. Rule as the data show it: active = GI50 up to about 1.1 µM and inactive = higher.
endpoint_label: GI50

// below: answered compounds
COC1=CC(=O)C2C(C1=O)C(c1ccccc1)[C@H]2C (some centres undefined)    > 100 µM (inactive)
CCOC(=O)CCC(NC(=O)N1CCN(c2c(C)nc(C)nc2O)CC1)C(=O)OCC (centres undefined)    > 100 µM (inactive)
CC1OC(c2ccc3c(c2O)C(=O)C2=C(C3=O)C3(O)C(=O)CC(C)(O)CC3(O)C=C2)CC(O)C1O (centres undefined)    21.3 µM (inactive)
CC(=O)OC[C@@H](OC(C)=O)[C@H](OC(C)=O)[C@@H]1OC(C)(C)O[C@@H]1C1SCCCS1    > 100 µM (inactive)

For each of the compounds below, state GI50.
1. COC(=O)CCC(=O)NC1=C(Nc2ccccc2)C(=O)c2ccccc2C1=O
2. C=CC(CBr)CCC(Br)C(C)(C)Br (centres undefined)
3. Oc1[nH]c(Nc2cccc(Br)c2)nc2ncnc1-2
4. O=C1C/C(=C/c2ccc(/C=C3/CC(=O)N(c4cccc(Br)c4)C3=O)cc2)C(=O)N1c1cccc(Br)c1
5. CCCCC1(C(NC(=O)c2ccccc2Cl)c2ccncc2)C(=O)N(c2ccccc2)N(c2ccccc2)C1=O (centres undefined)

OUT:
1: 15.7 µM (inactive); 2: > 10 µM (inactive); 3: > 100 µM (inactive); 4: > 100 µM (inactive); 5: 81.3 µM (inactive)

---

system: DLD-1; experiment: NCI tumour cell line growth inhibition, 48 h
Calls of active or inactive are those of the source. Rule as the data show it: active = GI50 up to about 1.1 µM and inactive = higher.
// one of active, inactive, no free text

Solved cases below.
Cn1c2cc(O)cc(O)c2c(=O)c2c([N+](=O)[O-])cccc21    inactive
O=C1CC[C@@H](NC(=O)Cc2ccccc2)C(=O)N1    inactive
COc1ccc(/N=N/c2c(N)nn(C)c2N)cc1    inactive
COc1cccc2ccc(C(=O)c3ccccc3)nc12    inactive

Turning now to a further record.
IN: GET /call?item= "O=C1C[C@H](c2ccc(O)c(O)c2)Oc2cc(O)cc(O)c21" returns the recorded outcome of this test.
OUT: inactive

---

tested on: OVCAR-5; experiment: NCI tumour cell line growth inhibition, 48 h
Calls of active or inactive are those of the source. No stated cut-off is given here; in the data, active = GI50 up to about 1.1 µM and inactive = higher.
endpoint_label: GI50

O=C1CC(C(O)(C(F)(F)F)C(F)(F)Cl)CCC1C(O)(C(F)(F)F)C(F)(F)Cl (centres undefined)    > 10 µM (inactive)

Dear colleague, could you send me GI50 for each of the items below? Thanks.
1. CC[N+]1(C)CCC(O)(c2ccccc2)C(C(=O)c2ccccc2)C1 (centres undefined)
2. CC1OC(c2ccc3c(c2O)C(=O)C2=C(C3=O)C3(O)C(=O)CC(C)(O)CC3(O)C=C2)CC(O)C1O (centres undefined)
3. COc1cc(Cc2cnc(N)nc2N)cc(OC)c1OCCCNc1ccc([N+](=O)[O-])cc1
4. CCOc1cn(C2OC(CO)C(O)C2O)c(=O)[nH]c1=O (centres undefined)
5. O=C1CC2(CCN(Cc3ccccc3)CC2)C(=O)N1N1CCCCC1
6. N#C[BH2-][n+]1cn(C2CC(OP(=O)(O)OCC3OC(n4cnc5c(N)ncnc54)CC3O)C(CO)O2)c2nc(N)[nH]c(=O)c21 (centres undefined)
7. C=C1C(=O)C[C@H]2C(=C)C(=O)O[C@@H]2C2C1CC[C@@]2(C)O (some centres undefined)
8. C/C(CC1SCCCS1)=C(/C)CC1SCCCS1

OUT:
1. 17.9 µM (inactive)
2. 17 µM (inactive)
3. 19 µM (inactive)
4. > 100 µM (inactive)
5. > 100 µM (inactive)
6. > 100 µM (inactive)
7. 32.8 µM (inactive)
8. > 100 µM (inactive)

---

test system: NCI-H460; assay: NCI tumour cell line growth inhibition, 48 h
Calls of active or inactive are those of the source. No stated cut-off is given here; in the data, active = GI50 up to about 1.1 µM and inactive = higher.
endpoint_label: GI50

CC(C)/C=C1\CCC(CN2CCCC2)C1=O (configuration not stated)    39 µM (inactive)
Cc1cc(C)c(C2=NOC(c3ccccc3)(c3cc(=O)n(-c4ccccc4)s3)O2)c(C)c1 (configuration not stated)    43.1 µM (inactive)
CC(=O)OC[C@@]1(C)[C@@H]2[C@@H]3[C@@]4(CO[C@]3(C)C(=O)[C@@]3(OC(C)=O)C[C@H](C)[C@H](OC(C)=O)[C@@H]3[C@H]4OC(C)=O)[C@H](OC(=O)c3ccccc3)C[C@@H]21    59 µM (inactive)
CN(C)c1ccc(/C=C2\N=C(NN)NC2=O)cc1    69.8 µM (inactive)
CCOC(=O)C1(C(C)=O)OC(=O)c2cnccc21 (configuration not stated)    > 100 µM (inactive)

Please supply GI50 for each of the following items, keeping them in order.
1. CCS/C(=N\c1ccccc1)SC
2. COC(=O)C1C(O)C(C)C(O)C(C)C=C(C)C2=C3C(=C(C)C(=O)c4c(O)c(c(C)c(OC(C)=O)c43)NC(=O)C(C)=C/C=C\C(C)C(O)C(C)C1O)OCO2 (configuration not stated)
3. Oc1nc(S)nc2nc3c4cccnc4c4ccccc4c3nc12
4. O=C(O)c1ccc(CNCc2ccccc2)cc1
5. COC(=O)C1C(=O)C(C(=O)OC)C2CCC1N2C (configuration not stated)
6. COC(=O)c1c(C#N)c(N)nc2c1CCC2
7. CC1=NC(=Cc2ccc(O)cc2)C(=O)N1n1c(-c2ccccc2)nc2ccccc2c1=O

OUT:
1: > 100 µM (inactive); 2: 67.5 µM (inactive); 3: 57.3 µM (inactive); 4: > 100 µM (inactive); 5: 48.3 µM (inactive); 6: > 100 µM (inactive); 7: > 100 µM (inactive)

Please go through the list and note GI50 for each molecule.
1. C/C=C1\C(=O)O[C@H]2C/C(C)=C/CC/C(C)=C/CC[C@@]3(C)O[C@@H]3C[C@@H]12
2. O=c1[nH]c(=O)n(C2OC(CO)C(O)C2O)c2ccsc12 (configuration not stated)

OUT:
["46.1 µM (inactive)", "> 100 µM (inactive)"]

# batch: return GI50 for each of the 2 molecules below
1. COc1ccc(C2(CN(C)C)COc3cc(OC)c(OC)cc3C2=O)cc1OC (configuration not stated)
2. CCN(CC)CC(O)C1CCC(c2ccccc2)CC1 (configuration not stated)

OUT:
["33.9 µM (inactive)", "25.6 µM (inactive)"]

Lab note: each molecule below needs its GI50 filled in.
1. CC(=O)NNc1ncc(C(=O)/C=C/c2ccccc2C)s1
2. O=C1C[C@H](c2ccc(O)c(O)c2)Oc2cc(O)cc(O)c21
3. Cc1ccc(NC(=O)C(=O)C(C#N)c2ccccc2C)cc1C (configuration not stated)
4. Oc1ccccc1-n1nc2ccc3nonc3c2n1
5. C1=C[C@@H]2c3ccc4cnccc4c3NC[C@@H]2C1
6. O=C1C=CC2(C=C1)C[C@H](NC(=O)OCc1ccccc1)C(=O)O2
7. CCc1cccc(C)c1NC(=O)CCc1nnc(SC)o1

OUT:
["> 100 µM (inactive)", "72.4 µM (inactive)", "> 48.5 µM (inactive)", "> 100 µM (inactive)", "> 100 µM (inactive)", "24.3 µM (inactive)", "> 100 µM (inactive)"]
